Where these numbers come from: ChEMBL document CHEMBL1140576

Target: Human immunodeficiency virus type 1 integrase (Human immunodeficiency virus 1)
Sequence (Q7ZJM1 whole entry): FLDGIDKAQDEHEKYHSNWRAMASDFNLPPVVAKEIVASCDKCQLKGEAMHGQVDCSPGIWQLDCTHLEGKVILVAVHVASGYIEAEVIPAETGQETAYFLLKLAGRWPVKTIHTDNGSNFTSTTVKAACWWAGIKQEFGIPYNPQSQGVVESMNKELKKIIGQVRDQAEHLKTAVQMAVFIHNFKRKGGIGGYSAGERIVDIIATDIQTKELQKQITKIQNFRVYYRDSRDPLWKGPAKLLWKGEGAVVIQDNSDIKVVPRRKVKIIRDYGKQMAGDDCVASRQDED
Test: Inhibition of HIV1 integrase 3'-end processing activity
Here the recorded IC50 is given for each entry.

These recorded examples may help you get a feel for the data.
>  <Smi>
O=C(CSc1nnc(-c2ccncc2)n1-c1ccc(F)cc1)NNC(=O)c1ccccc1O

>  <Reading>
49 µM

$$$$
>  <Smi>
Cc1ccc(-n2c(SCC(=O)NNC(=O)c3ccccc3O)nnc2-c2ccccc2)cc1

>  <Reading>
23 µM

$$$$
>  <Smi>
Cn1c(SCC(=O)NNC(=O)c2ccccc2O)nnc1-c1ccccc1

>  <Reading>
64 µM

$$$$
>  <Smi>
COc1ccc(-c2nnc(SCC(=O)NNC(=O)c3ccccc3O)n2-c2ccccc2)cc1OC

>  <Reading>
22 µM

$$$$

Given the compound O=C(CSc1nnnn1-c1ccccc1)NNC(=O)c1ccc(O)cc1O , what is its reported IC50?
68 µM

Could you do the same for Cc1cc(C)nc(SCc2nnc(SCC(=O)NNC(=O)c3ccccc3O)n2-c2ccccc2)n1 , please?
51 µM

Check O=C(CSc1nnc(Cc2ccccc2)n1-c1cccc(Cl)c1)NNC(=O)c1ccccc1O too.
9 µM

Now try COc1ccc(-n2c(Cc3ccccc3)nnc2SCC(=O)NNC(=O)c2ccccc2O)cc1 .
18 µM

Try O=C(CSc1nnc(-c2ccccc2)n1Cc1ccccc1)NNC(=O)c1ccccc1O next.
21 µM

Then this compound: O=C(CSc1nnc(Cc2ccccc2)n1C1CCCCC1)NNC(=O)c1ccccc1O
21 µM

Would you mind doing COc1ccccc1-n1c(SCC(=O)NNC(=O)c2ccccc2O)nnc1-c1ccccc1O as well?
8 µM

Please do the same for O=C(CSc1nnc(-c2ccccc2O)n1Cc1ccccc1)NNC(=O)c1ccccc1O as well.
15 µM
